- System: MDA-MB-435
- test details: NCI tumour cell line growth inhibition, 48 h
test readout: TGI

Worked set:
molecule=Nc1c(C(=O)c2cccc(C#CCN3CCOCC3)c2)cnn1-c1ccc(F)cc1 test_readout=TGI value_reported="> 17.4 µM"
molecule=CC(C)(C)CC(C)(C)N=C(N)NO test_readout=TGI value_reported="> 100 µM"
molecule=COc1c(C)c(C/C=C(\C)CCCCO)c(OC)c(OC)c1OC test_readout=TGI value_reported="> 100 µM"
molecule=O=C1Nc2cc([N+](=O)[O-])ccc2C(=O)N2CCC[C@@H]12 test_readout=TGI value_reported="> 100 µM"
molecule=C/C1=C\[C@H](C)C[C@H](C)OC(=O)C[C@H](c2ccc(O)cc2)NC(=O)[C@H](Cc2ccc(O)c(Br)c2)N(C)C(=O)[C@H](C)NC(=O)[C@@H](C)C1 test_readout=TGI value_reported="> 25 µM"

Indicate the recorded TGI value for this molecule: `CC(CO)(CO)Nc1ncnc2ccccc12`
> 100 µM

Tell me its TGI given COc1ccc(C2CC(=O)CC(c3ccc(OC)cc3)C23C(=O)NC(=S)NC3=O)cc1 (centres undefined) as the entry.
> 100 µM

Output TGI of `COC(=O)n1c(=O)n(-c2ccccc2)c(=O)n1C(=O)Nc1ccccc1`
> 100 µM

---

- Tested on: OVCAR-8 ovarian
- test details: NCI tumour cell line growth inhibition, 48 h
test readout: TGI

// worked examples, TGI included
compound=COc1ccc([C@H]2C=C(c3cc(F)c(Cl)cc3Cl)NC(=S)N2)cc1 value_reported="> 100 µM"
compound=COc1cccc(-n2ncc3c(N/N=C/c4ccc(S(C)(=O)=O)cc4)ncnc32)c1 value_reported="15.6 µM"
compound=CC(C)[Si](OC1=C(C(=O)N(C)c2ccccc2Cl)CCCC1)(C(C)C)C(C)C value_reported="30.2 µM"
compound="CCOC(=O)N1N=NC2C3OC(C[C@@]3(C#N)OC(C)=O)[C@H]21 (some centres not stated)" value_reported="> 100 µM"
compound=CC1(C)CC(OCCCC[P+](c2ccccc2)(c2ccccc2)c2ccccc2)CC(C)(C)N1O value_reported="2.61 µM"

Look up and state reported TGI for CC(C)c1c(O[Si](C(C)C)(C(C)C)C(C)C)c2c3c(ccc4c3c1OC4(C)C)C(C)CC2 (configuration not stated)
> 100 µM

Return TGI (reported value) for this compound: `Cc1ccc(N=Nc2c(N)nn(-c3ccccc3)c2N)cc1`
> 100 µM

---

// reported TGI per item
- Tested on: HS 578T breast
- test details: NCI tumour cell line growth inhibition, 48 h

Some solved entries appear below for comparison.
compound=Nc1nc(N)c2c(ccc3nccc32)[nH]1 value_reported="> 64.7 µM"
compound=COc1ccc2c(c1)sc1nc(-c3ccccc3)c(-c3ccc(O)c(OC)c3)n12 value_reported="> 100 µM"
compound=COc1ccc([C@H]2C=C(c3cc(F)c(Cl)cc3Cl)NC(=S)N2)cc1 value_reported="> 100 µM"

Give the reported TGI for this compound. CC(C)C1SCc2nc3ccccc3n21 (centres undefined)
> 100 µM

---

- Tested on: LOX IMVI melanoma
- test details: NCI tumour cell line growth inhibition, 48 h
test readout: TGI

The following compounds have reported results that may help.
compound="Cc1ccc2c(c1)SC(c1cc3c(cc1Br)OCO3)S2 (configuration not stated)" value_reported="> 31.6 µM"
compound=CC(C)=C[C@@H]1C[C@H](C)c2c(O)cc(C)c3c2C1=C(C)C(=O)C3=O value_reported="33.3 µM"
compound="CC(C)(C)OC(=O)NC(Cc1ccc(OCc2ccccc2)cn1)C(=O)NCc1ccccc1 (configuration not stated)" value_reported="39.4 µM"

Consider the compound CC(=O)C1C(=O)C(=O)N(c2ccccc2N2C(=O)C(=O)C(C(C)=O)C2=O)C1=O (configuration not stated) and give its recorded TGI.
> 100 µM

Fill in TGI for record `O=C(NCCNCCNCCNC(=O)c1cc(-c2ccccc2)nc2ccccc12)c1cc(-c2ccccc2)nc2ccccc12`
3.03 µM

Please report TGI for the following compound: CCN1C(=O)c2ccccc2C1(O)c1ccc(Cl)cc1 (configuration not stated)
> 100 µM

Quickly give me recorded TGI for `CNNC(=N\S(=O)(=O)c1cc(C(=O)Nc2ccc(Cl)cc2)c(Cl)cc1SCc1ccccc1)/N=C/c1ccc([N+](=O)[O-])s1`
> 100 µM

---

Property: TGI; scope: individual molecules
- System: SK-MEL-28 melanoma
- test details: NCI tumour cell line growth inhibition, 48 h

Some solved entries appear below for comparison.
molecule="Cc1ccc2c(c1)SC(c1cc3c(cc1Br)OCO3)S2 (configuration not stated)" test_readout=TGI value_reported="> 31.6 µM"
molecule=Cc1ccc(N=Nc2c(N)nn(-c3ccccc3)c2N)cc1 test_readout=TGI value_reported="> 100 µM"
molecule="NCCCC1NC(=O)/C(=C(O)/C=C/C2CCC[C@@H]2CC2SCCS2)C1=O (some centres not stated)" test_readout=TGI value_reported="> 100 µM"
molecule="CCN1C(=O)c2ccccc2C1(O)c1ccc(Cl)cc1 (configuration not stated)" test_readout=TGI value_reported="> 100 µM"
molecule=O=C(O)CCCSc1nc2ccccc2s1 test_readout=TGI value_reported="> 100 µM"

Indicate the recorded TGI value for this molecule: CC(C)(C)OC(=O)NC1CCC[C@H]1O (some centres not stated)
> 100 µM

Indicate its recorded TGI; the molecule in question is COc1ccc(/C=C2\SC(c3ccc(OC)cc3)N(NC(=O)Cc3ccccc3)C2=O)cc1 (configuration not stated)
> 100 µM

---

This listing pairs compounds with measured TGI.
- System: RXF 393 renal
- test details: NCI tumour cell line growth inhibition, 48 h

Past entries and their recorded results:
molecular_string=Nc1c(C(=O)c2cccc(C#CCN3CCOCC3)c2)cnn1-c1ccc(F)cc1 target="RXF 393 renal" value_reported="> 25 µM"
molecular_string=N#CCN1CCOCCOCCN(CC#N)CCOCCOCC1 target="RXF 393 renal" value_reported="> 100 µM"
molecular_string=Cc1nc2ccccc2c(=O)n1NC(=S)Nc1cccc(Cl)c1 target="RXF 393 renal" value_reported="> 100 µM"
molecular_string=CC(C)=CCC[C@](C)(O[C@@H]1O[C@H](CO)[C@@H](O)[C@H](O)[C@H]1O)[C@H]1CC[C@]2(C)[C@@H]1[C@H](O)C[C@@H]1[C@@]3(C)CC[C@H](O)C(C)(C)[C@@H]3[C@@H](O[C@@H]3O[C@H](CO)[C@@H](O)[C@H](O)[C@H]3O)C[C@]12C target="RXF 393 renal" value_reported="> 100 µM"

Then this compound:
Send back RXF 393 renal TGI of `Nc1ccc(Nc2c3ccccc3nc3ccccc23)cc1` only.
> 10 µM

---

- System: SF-539 CNS
- test details: NCI tumour cell line growth inhibition, 48 h
test readout: TGI

// below: answered compounds
compound="Cn1c(=O)c2c(nc(N)n2C2OC(CO)C(O)C2O)n(C)c1=O (stereo unspecified)" value_reported="> 100 µM"
compound=Cc1ccc(NC(=O)CC/C(CC(=O)c2ccc(F)cc2)=N\NC(=O)C(=O)NN)cc1C value_reported="> 100 µM"

Report TGI under test system SF-539 CNS for `CCN(CC)CCOC(=O)CCN1CC2CCC(CC2)C1` .
> 100 µM

Enter recorded TGI with SF-539 CNS for `N#CCN1CCOCCOCCN(CC#N)CCOCCOCC1` here.
> 100 µM

Answer with TGI of `CN(C)c1nc(=NCc2cccs2)ss1` measured for SF-539 CNS.
> 10 µM

# assay system SF-539 CNS: give TGI of `CC(C)(C)CC(C)(C)N=C(N)NO`
> 100 µM

---

- Test system: SF-268 CNS
- test details: NCI tumour cell line growth inhibition, 48 h
test readout: TGI

// below: answered compounds
compound="Nc1nc(Cl)cc(NCC2(CO)CCC(O)C2)n1 (stereo not drawn)" test_readout=TGI value_reported="> 100 µM"
compound=COc1cc(C(=O)C/C(CCC(=O)Nc2ccc(Cl)cc2Cl)=N/NC(=O)C(N)=O)ccc1O test_readout=TGI value_reported="> 100 µM"
compound=CN1C(=O)[C@@H]2N(CSC2(C)C)C1=S test_readout=TGI value_reported="> 100 µM"
compound="NC1CC(=O)c2csc(Cl)c21 (stereo not drawn)" test_readout=TGI value_reported="31.8 µM"
compound="CC(=O)OC1C/C(C)=C/CCC(C)/C=C/C2(C)CCC(C(C)(C)O)C12 (stereo not drawn)" test_readout=TGI value_reported="> 100 µM"
compound=NC(=S)NNC(=O)CCC(=O)Nc1ccc(Cl)cc1Cl test_readout=TGI value_reported="> 100 µM"

Look up and state reported TGI for `COc1c(C)c(C/C=C(\C)CCCCO)c(OC)c(OC)c1OC`
> 100 µM

State its TGI for this compound: `COc1cc(C)c2c(=O)c3c(oc2c1)C(=O)c1c(O)c(OC)cc(O)c1C3=O`
> 50 µM

Please indicate TGI recorded for CC(=O)OC1CCC2(C)C(CCC3C4CC=C(C(C)=O)C4(C)OC(=O)CC32)C1 (stereo not drawn)
17.8 µM

Report TGI for `c1ccc(-c2nnc(Nc3ccc4c(c3)OCCO4)o2)c(NCc2ccncc2)c1`
> 67.6 µM

Please look at this compound and report its TGI: `Nc1ccc2cc3[nH]c4cc(N)ccc4c3nc2c1`
1.8 µM

Supply recorded TGI for `N#Cc1c(N)c2c(c(-c3ccccc3)c1-c1ccccc1)C(=O)N(NC(=O)c1ccccc1)C2=O` here.
> 100 µM

# return recorded TGI for input `CN(C)CCCNc1ccnc2cc([N+](=O)[O-])ccc12`
53.9 µM

Please give the documented TGI of COc1ccc2c(c1)CCCN1Cc3cc(OC)c(OC)cc3CC21 (stereo not drawn)
> 100 µM

State, in one line, measured TGI of `CC1=C(C(=O)CC(=O)C(=O)Nc2ccccc2)Sc2ccccc2N1`
> 100 µM

Name the recorded TGI of the item `COc1cc2nc(N3CCCC3)nc(Nc3ccccc3)c2cc1OC` in your answer.
3.93 µM

State its TGI for this compound: `COc1cc(/C=C/c2ccc(OC(C)=O)cc2)cc(OC)c1OC`
> 100 µM

Give the measured TGI for `CC(C)[Si](OC1=C(C(=O)N(C)c2ccccc2Cl)CCCC1)(C(C)C)C(C)C`
29.2 µM

Where these numbers come from: PubChem BioAssay (NCI)
